# credit: ChEMBL document CHEMBL1221345

Tested on: KB
measurement notes: Cytotoxicity against human KB cells
Format: functional, cell-based
readout: pIC50
One number for each entry, as −log10 of the molar value.

molecule	readout	number
O=C1C[C@@H]2C3=C(C=C[C@@H]2O1)O[C@@H](c1ccccc1)CC3=O [CRYPTOCARYANONE A]	pIC50	5.60

Lab note: next molecule to report on.
API: value(readout=pIC50, system=KB) for record COC(=O)C[C@H]1CC=CC(=O)/C1=C(O)/C=C/c1ccccc1 [INFECTOCARYONE] 5.77
